Source of measurements: patent US20260209362A1

# experimental-target: T1, biotinylated recombinant human IL-12Rβ2 (produced in-house) (human, UniProt Q99665 24-622, random biotinylated)
# T1 construct: also called hIL-12RB2; hIL12RB2
# T1 sequence: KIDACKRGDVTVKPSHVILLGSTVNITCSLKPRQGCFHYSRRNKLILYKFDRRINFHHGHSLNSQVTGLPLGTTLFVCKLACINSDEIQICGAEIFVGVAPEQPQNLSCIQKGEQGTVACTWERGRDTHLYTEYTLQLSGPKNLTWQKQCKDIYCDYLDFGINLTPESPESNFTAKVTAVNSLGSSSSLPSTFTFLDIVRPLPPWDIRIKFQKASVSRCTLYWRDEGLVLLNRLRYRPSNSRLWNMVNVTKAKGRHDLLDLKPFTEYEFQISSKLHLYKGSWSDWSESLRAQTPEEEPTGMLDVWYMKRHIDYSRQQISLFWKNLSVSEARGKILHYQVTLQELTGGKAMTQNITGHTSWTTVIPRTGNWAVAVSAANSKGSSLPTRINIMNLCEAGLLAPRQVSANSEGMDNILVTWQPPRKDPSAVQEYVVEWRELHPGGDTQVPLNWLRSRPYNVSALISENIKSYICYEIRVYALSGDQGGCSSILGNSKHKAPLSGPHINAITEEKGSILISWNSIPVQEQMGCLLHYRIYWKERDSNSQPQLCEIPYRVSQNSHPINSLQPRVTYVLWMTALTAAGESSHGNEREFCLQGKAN
# assay-protocol: BLI (Octet), P.E. VHH on immobilised biotinylated hIL-12RB2
Listing: Response of selected binders
No unit in the answer, only the number.

Consider the following illustrative entries.
>>> test_value("anti-IL-12Rβ2 VHH clone 3CRHS51 (VHH, not shown: small tags and cut ends, tested as periplasmic extract; also called 3CRASS1) VHH: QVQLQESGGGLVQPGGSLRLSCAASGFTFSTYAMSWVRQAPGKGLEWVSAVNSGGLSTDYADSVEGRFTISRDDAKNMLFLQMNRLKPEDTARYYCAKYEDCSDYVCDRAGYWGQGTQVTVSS")
0.327
>>> test_value("anti-IL-12Rβ2 VHH clone 3CRHM73 (VHH, not shown: small tags and cut ends, tested as periplasmic extract; also called 21060) VHH: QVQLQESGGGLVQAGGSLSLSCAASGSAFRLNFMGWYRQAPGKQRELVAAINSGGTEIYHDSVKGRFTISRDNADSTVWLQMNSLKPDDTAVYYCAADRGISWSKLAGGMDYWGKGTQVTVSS")
1.45
>>> test_value("anti-IL-12Rβ2 VHH clone 3CRHS54 (VHH, not shown: small tags and cut ends, tested as periplasmic extract; also called 3CRHSS4) VHH: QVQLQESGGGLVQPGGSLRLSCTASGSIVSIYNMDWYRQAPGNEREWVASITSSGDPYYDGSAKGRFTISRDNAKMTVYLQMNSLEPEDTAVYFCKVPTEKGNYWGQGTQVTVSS")
0.203

Ask | Supply measured Response of anti-IL-12Rβ2 VHH clone 3CRHS128 (VHH, not shown: small tags and cut ends, tested as periplasmic extract; also called SCRHS128) VHH: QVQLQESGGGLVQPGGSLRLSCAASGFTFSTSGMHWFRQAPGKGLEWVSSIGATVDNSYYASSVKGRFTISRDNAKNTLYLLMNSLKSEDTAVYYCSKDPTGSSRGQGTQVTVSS in your reply.
Reply | 0.294
